- protocolDescription: qHTS of pediatric cancer cell lines to identify multiple opportunities for drug repurposing: Primary screen for BT-12 cells (AID 1347101); further: nearly all actives have a fitted effect of over 25% in size
- conditionSummary: BT-12 viability, CellTiter-Glo luminescence, 48 h; series mostly up to 57.3 µM
Results filed as inconclusive are left out. Activity calls are given as the source filed them. The call rests on the fitted dose curve; in most records, active means well fitted cell-killing curve with a large enough effect; inconclusive means small, poorly fitted or top-dose-only effect; inactive means flat fitted curve, though single readings scatter.
Labels: True (active), False (inactive)

O=C(O)CCCOc1ccc(Cl)cc1Cl
False
CCN1CCN(C(=O)Cc2ccc(Nc3ncc(F)c(Nc4ccc(C(=O)Nc5ccccc5Cl)cc4)n3)cc2)CC1
True
CC(C)N(CCNC(=O)CN1CCCC1=O)C(C)C
False
CC(=Cc1csc(C)n1)[C@@H]1C[C@H]2O[C@]2(C)CCC[C@H](C)[C@@H](O)[C@@H](C)C(=O)C(C)(C)[C@@H](O)CC(=O)O1
False
O=[N+]([O-])c1c2ccccc2cc2ccccc12
False
O=C(O)COc1ccccc1
False
Fc1cc(Br)ccc1CBr
False
CC(=CCCC1=CCC(C2=CC(=O)OC2O)OC1O)CCC1=C(C)CCCC1(C)C (centres undefined)
False
CC(=O)Nc1ccc(OC[C@](C)(O)C(=O)Nc2ccc([N+](=O)[O-])c(C(F)(F)F)c2)cc1
False
O=[N+]([O-])c1ccc([As](=O)(O)O)cc1
False
COCCOCCO
False
CCOC(=O)c1c(C(C#N)=CN)c2ccc(Cl)c(Cl)c2n1C
False
CCCC[N+]1(C)[C@H]2CC(OC(=O)[C@H](CO)c3ccccc3)C[C@H]1[C@H]1O[C@H]12 (some centres undefined)
False
COc1cccc2c1[C@]13CCN(CC4CC4)[C@H](C2)[C@]1(OC)CCC(=O)C3
False
CC[C@H]1C=CC=CC[C@@H](C)[C@H](O)[C@@](C)(O)C(=O)[C@@H](C)[C@H](O)[C@@H](C)C(=O)[C@@H](C)[C@H](O)[C@@H](C)C=CC(=O)O[C@@H]2[C@@H](C)[C@H](CC1)O[C@]1(CC[C@H](C)[C@H](C[C@@H](C)O)O1)[C@H]2C
True
CC(=O)N(C)c1cccc(-c2ccnc3c(C(=O)c4cccs4)cnn23)c1
False
Cc1nc(-c2ccc(-c3ccc(C(=O)N4CCc5cc6c(cc54)C4(CCN(C)CC4)CO6)cc3)c(C)c2)no1
False
CN[C@@H]1Cc2cccc3[nH]c(=O)n(c23)C1
False
O=C(O)C(Cl)Cl
False
Oc1ccc2c3c1O[C@H]1c4[nH]c5c(c4C[C@@]4(O)[C@@H](C2)N(CC2CC2)CC[C@]314)C[C@@]1(O)[C@H]2Cc3ccc(O)c4c3[C@@]1(CCN2CC1CC1)[C@H]5O4
False
CCCN(CCC)c1c([N+](=O)[O-])cc(S(N)(=O)=O)cc1[N+](=O)[O-]
True
O=C(Nc1ccccc1-c1ccc(Cl)cc1)c1cccnc1Cl
False
COc1ccc2c(c[n+](C)c3c4cc5c(cc4ccc23)OCO5)c1OC
True
COc1ccc(CC2NCCc3cc(OC)c(OC)cc32)cc1OC (centres undefined)
False
CCCCCCCCCCCCCCCC[N+](C)(C)C
True
CN(C)[C@@H]1C(=O)C(C(N)=O)=C(O)[C@@]2(O)C(=O)C3=C(O)c4c(O)cccc4[C@@](C)(O)[C@H]3[C@H](O)[C@@H]12
False
CC1=C(O)C(=O)C=C2C1=CC=C1[C@@]2(C)CC[C@@]2(C)[C@@H]3C[C@](C)(C(=O)O)CC[C@]3(C)CC[C@]12C
True
CC1=NN=C(c2ccc(N)cc2)c2cc3c(cc2C1)OCO3
False
CC(Cc1ccc(O)cc1)NCC(O)c1cc(O)cc(O)c1 (centres undefined)
False
CC[C@@H](C(N)=O)N1CCCC1=O
False
CN1[C@H]2CC(O)C[C@H]1[C@H]1O[C@H]12 (some centres undefined)
True
Nc1c(Cl)c(Cl)c(Cl)c(Cl)c1Cl
False
O=C(Oc1ccc([N+](=O)[O-])cc1)N1CCC(C(O)(c2ccc3c(c2)OCO3)c2ccc3c(c2)OCO3)CC1
False
CCN1C[C@]2(OC(=O)c3ccccc3NC(C)=O)CC[C@H](OC)[C@@]34[C@H]5CC6[C@@H](OC)C[C@](O)(C(C[C@@H]23)[C@@H]14)[C@@]5(O)[C@@H]6OC
False
c1ccc2c(CN3CCNCC3)cccc2c1
False
CC=C(C)C(=O)O[C@H]1C(C)=C2[C@@H]3OC(=O)[C@@](C)(O)[C@@]3(O)[C@@H](OC(=O)CCC)C[C@](C)(OC(C)=O)[C@@H]2[C@@H]1OC(=O)CCCCCCC
True
CC[N+]1(CCOC(=O)C(O)(c2ccccc2)c2ccccc2)CCCCC1
False
CCC(=O)O[C@@H]1C=C2CCC3C(CCC4(C)C3CC[C@@H]4OC(=O)CC)C2CC1 (some centres undefined)
False
Cc1cc(O)ccc1Cl
False
